- Tested on: KB-3-1
- Assay: Cytotoxic Profiling of Annotated Libraries Using Quantitative High-Throughput Screening (AID 1296008); note: % is set by controls: 0 for no effect and ±100 for the full control effect; nearly all actives have a fitted effect of over 60% in size
- Details: Five cell lines viability, CellTiter-Glo ATP luminescence, 48-72 h; stronger effect = lower value
Inconclusive results are not listed.
Entries annotated with measured max response
Kindly answer with a numeric value in %, unit omitted.

| Molecule | max response / % |
| --- | --- |
| CC1(C)C(=O)CCC2(C)C1C(O)C=C1COC(=O)C12O (stereo not given) | 7.63 |
| COC(=O)C1(O)C(OC(C)=O)CCC2C3(CC(c4ccoc4)OC3=O)C(C)=CCC21C(=O)OC (stereo not given) | 9.04 |
| C[C@@H]1C[C@@H](O)[C@@]23CO[C@]2(CO)CCC[C@@H]3[C@@]12C[C@@H](c1ccoc1)OC2=O | 7.05 |
| Cc1nc2cc(-c3cc(F)cc(C#N)c3)ccc2s1 | 0.518 |

Note to self: max response of O=[N+]([O-])c1cc(Cl)ccc1S(=O)(=O)N1CCN(Cc2ccccc2)CC1 with KB-3-1 was -13.2

----------
- Tested system: Phospholipid hydroperoxide glutathione peroxidase GPX4 (Homo sapiens)
- Assay: Primary qHTS Assay for Inhibitors of Recombinant Selenoprotein Glutathione Peroxidase 4 (GPX4) (AID 1845192); note: nearly all actives have a fitted effect of over 65% in size; for activity change, negative = inhibition: % is set by controls: 0 for no effect and ±100 for the full control effect
- Details: recombinant GPX4, GR-coupled NADPH fluorescence, 15 min; series mostly up to 27.8 µM
Records with an inconclusive call do not appear. Activity calls are given as the source filed them. Calls follow the shape of the dose curve; as a rule, active = well fitted inhibition curve with a large enough effect; inconclusive = small, poorly fitted or top-dose-only effect; inactive = flat fitted curve, though single readings scatter.
Value type: activity change, negative = inhibition

These solved cases illustrate the format of a correct answer.
| Compound | activity change, negative = inhibition |
| --- | --- |
| CC(O)C/C=C/C=C/C(=O)OC1C=C2COC(=O)C2(O)C2(C)CCCC(C)(C)C12 (configuration not stated) | inactive |
| O=C(O)CCc1cc2ccoc2cc1O[C@@H]1O[C@H](CO)[C@@H](O)[C@H](O)[C@H]1O | inactive |
| CC1(C)CC[C@]2(C(=O)O)CC[C@]3(C)C(=CCC4[C@@]5(C)CC[C@H](O[C@@H]6O[C@H](C(=O)O)[C@@H](O)[C@H](O)[C@H]6O)C(C)(C)C5CC[C@]43C)C2C1 (some centres not stated) | inactive |
| Cc1ccc(Nc2nnc(-c3ccc([N+](=O)[O-])cc3)o2)cc1Cl | inactive |
| CC(C)/C=C1/NC(=O)C(C(C)C)n2c1nc1c(O)cccc1c2=O (configuration not stated) | inactive |

Just so you know, measured activity change, negative = inhibition for NC(=O)[C@H](Cc1ccccc1)NC(=O)[C@H](CCCN=C(N)N)NC(=O)C12CC3CC(CC(C3)C1)C2 came out at inactive

----------
- Test system: SKOV3
- Assay: Primary qHTS to identify gynecologic anti-cancer compounds using libraries of approved drugs and bioactive compounds (AID 1345084); note: % is set by controls: 0 for no effect and ±100 for the full control effect; nearly all actives have a fitted effect of over 55% in size
- Details: Gynecologic cancer cell panel viability, ATPlite luminescence, 48 h; series mostly up to 57.5 µM
Records with an inconclusive call do not appear. Activity calls are given as the source filed them. Calls follow the shape of the dose curve; as a rule, active = well fitted cell-killing curve with a large enough effect; inconclusive = small, poorly fitted or top-dose-only effect, or effect the other way; inactive = flat fitted curve, though single readings scatter.
Value type: activity change, negative = cytotoxicity

Some compounds with recorded activity change, negative = cytotoxicity:
| Compound | Result |
| --- | --- |
| CC1(C)CC=C(C#Cc2ccccc2)c2cc(/C=C/c3ccc(C(=O)O)cc3)ccc21 | inactive |
| COc1cccc(Cn2ncc3c4sc(S(C)=O)cc4n(C)c3c2=O)c1 (stereo not given) | inactive |
| Cc1ncc(NC(=O)c2ccc(CN3CCN(C)CC3)c(C(F)(F)F)c2)cc1Nc1nccc(-c2cccnc2)n1 | inactive |
| COC(=O)C1(O)C(OC(C)=O)CCC2C3(CC(c4ccoc4)OC3=O)C(C)=CCC21C(=O)OC (stereo not given) | inactive |
| C=C1C(O)C(O)C2(CC3C(C)=CCC4C(C)(C(=O)O)CCCC34C)OC2C1O (stereo not given) | inactive |

Reported activity change, negative = cytotoxicity of CC1=C(CCC(C)O[C@@H]2O[C@H](CO)[C@@H](O)[C@H](O)[C@H]2O)C(C)(C)CC(O)C1 (stereo not given in full) : inactive

Note to self: activity change, negative = cytotoxicity recorded for CN(C)CC(c1ccc(O)cc1)C1(O)CCCCC1 (stereo not given) was inactive

Entry CCCCS(=O)(=O)NC(Cc1ccc(OCCCCC2CCNCC2)cc1)C(=O)O (stereo not given) , activity change, negative = cytotoxicity reported as inactive

get_value(item= CC1CCC2C(C)(C)C(O)C(O)CC2(C)C12Cc1c(O)cc(CO)c(C=O)c1O2 (stereo not given) , readout=activity change, negative = cytotoxicity) returns inactive

What the record says about C/C=C/C1OC2=C(C(=O)OC2(C)O)C(O)C1O (stereo not given) : activity change, negative = cytotoxicity is inactive

Reference source: PubChem BioAssay (NCATS)
